Can you tell me Proxy for plastic degradation for the items I'm about to list?
assay: Proxy for plastic degradation [UPLC/UHPLC]; settings: pH 9; 30 °C
# unit: µM | format: bare number

The measured Proxy for plastic degradation associated with unnamed (protein) MRIRQALVAFCAAIAMVVAGPSYASALDSPYQRGPDPTEASVKAIAGPFAVDQVKATGHTGFGSGTIFYPKDEKGTFGTIAVSPGFISPEGLVHWYAKTLASHGFVVMAMGTFTVADPPPSRGDQLRAALDYMKTKSPVKDKVDPTRLGLSGHSMGGGGTLDAASKMPDLKAAVPLAPWYLTGGPVIPKVKAPTLVVGANIDFVAPMAIFATPFYKALTSPNKALLTLPGDHMTPFLLANPTLTKFAVSWFKRFLDDDTRYDQFLCPNPASYEGTCPLT reads 11.2

Entry under test: unnamed (protein) MLSKRGILGALAGGAVAVGCLTAPAHAAGFEKGPDPTTASVTADRGSYDIAQVDVPKGSGTGFADGTIYYPKSTADGTFGAVAVIPGFLEPKSAIDWYGPRLASQGFVVMTLDTTSVFDTPDSRGGQLLAALDYLTSKSTVKDRIDPNRLAVVGHSMGGGGTLSAAANRPNLKAAVALAPWHVSAPLTSVKTPTMIFGSDNDFIAPDGTFAKPFYDGISNAPEKAYVRLKNAGHMAYVFPDKRIAEYTLSWLKRYVDDDTRYTQFLCPGPTNESTIAAYKSTCPM . Its Proxy for plastic degradation was 14.7

Proxy for plastic degradation measured on unnamed (protein) MNFPRASRLMQAAVLGGLMAVSAAATAQTNPYARGPNPTAASLEASAGPFTVRSFTVSRPSGYGAGTVYYPTNAGGTVGAIAIVPGYTARQSSINWWGPRLASHGFVVITIDTNSTLDQPSSRSSQQMAALRQVASLNGTSSSPIYGKVDTARMGVMGWSMGGGGSLISAANNPSLKAAAPQAPWNSSTNFSSVTVPTLIFACENDSIAPVNSHALPFYNSMSRNAKQFLEINGGSHSCANSGNSNQALIGKKGVAWMKRFMDNDTRYSTFACQNPNSTRVSDFRTANCS = 17.3

Measured Proxy for plastic degradation, unnamed (protein) MQDNSDGRYRPEGRTFARGAANLFDDRLFEARTYVTGTDVAEFASATIFYPLTLSFDLPNGVVVMSPGYTGTPESYDWWGPMLASVGIITAIIETNTPEDNLEQRKNALIAGIELIKRENANSASPINNKVDESQIAIMGHSLGGGASLRAAEELEGDIKAVIPLTPYCCELGQSFEGDLKGVSTPTLIIAAADDTIAPPETHSRLLYDEINSSTNKVYLEFAEGAHGLPTNQGSEFQTQGTYVYAFLKANFTNDSKYSDFIGGDGEDSFSSYETN : 15.4

Per the record, unnamed (protein) MNAPLFKLAALTLGLSLASVVLANNPGGGGGTAPDTGTGFPGVSNFSASGSFATTSGSAGASCTVFRPSTLGANNRKHPIIVWGNGTTASPNTYASLLQHWASHGFVVIAANTSNAGTGQEMLGCVDYLTTQNNRSTGTYAGKLDLNRIGAAGHSQGGGGTIMAGQDYRIKVTAPFQPYTIGLGHNSSSQSNQNGPMFLMTGSIDTIASPTLNALPVYTRANVPVFWGELSGASHFEPVGNAGDFRGPATAWFRYHLMDDASAEDTFYGSNCDLCTDRDWDVRRKGIN has Proxy for plastic degradation of 8.31

Lab book: Proxy for plastic degradation of unnamed (protein) MTAAAVSSRYYEETGPHAVTVEQGGPDHTLYYPSDLGAGGTQHPVVIWGNGTGATPETYDEGLRHFASWGFVVAAANTTQAGSGKEMLAGARFLIEEDQRSGSVFYGKIDETRIGAAGHSQGGGGAIAAGADPIVDTTIPIQPGPQGTVGDLHGPAFFISGQFDWIVPSSYVYSRYLGADHVPAVFGELRGADHFFPGDTRLRLIGATTAWFRFHLMADENARGIFFGPSSTCGICTDTEAWSKVDRNAKAQAIPG noted as 13.9

# protein unnamed (protein) MRVLAMTLALVASTLATPTALAAPPDYGLPGSYPVAYSDVTAVAGGRSVPARVHYPATTSGTNQPVATGRFPVIAFGHGFFQATSKYTSTSTHLASWGFVVVVPTTQGGLSPSHGAFADDLNTGLTWLVAQDGTTGSRFRDHITTTALGVSGHSMGGGAAVLAAARNPKIKAVSTYAAAETNPSAKAAAATLAAPAQFLAGSQDTITPVGDHQRPMFTAKPPARQLRTITGGFHCGFMDSSGLFCDNGSITRAAQLTASKRVMTSWFRHYLSGDTAARDLVWGQPARTDPAVVFEGTE ; its Proxy for plastic degradation = 13

Summary for this protein, unnamed (protein) MALVTALALVTGVGTAPAFADEIGQAPTAANITGDGSFSTSSSAIFGQSGFGGGTAYYPNTAGKYPVVAFAPGFLSDWNALNWLGPRVASWGFVVVGVNTNTPFDFPDARGDQLLAALNWAVNSAPAAVRDKADGSRRGVSGWSMGGGGTLEALAKDTTGTVKAGVPLAPWHTNKTWSKVTEPVFIIGGQNDSVAAPASHAIPFYNSLGGPKSYLERAGADHFFPTKSNGTVSRAVVSFFKRHVSADTRFTPFLCGFSGLDVSNFRSNSC : Proxy for plastic degradation is 65.5

// Proxy for plastic degradation lookup, protein = unnamed (protein) MSHRFRLAAAVCVAAAILVPATPAAAADPWDAPGPYATAVQIGAVNTLYYPRDIASSPRRHPVIVWGNGTGAAPLVYRDLLLYWASHGFIVSAANTPASNLGISMRLGIDALAAADADPGSIFRGKVDLAHIGASGHSQGGAAAIVVGADPRIDAILPIQPGPLADIDDVHVPALLLAGQHDSIVFPFLVKAFYNDATHIPAIYAEVRGADHFTVVGDPGPFAAPTTAWFRFQLMGDTAARAEFYGPSCGICTDTRTWSDVRRNALVP , result: 13
